Reference for the values: ChEMBL document CHEMBL3826877

Target: Acetylcholinesterase (Homo sapiens)
Test: Inhibition of recombinant human AChE expressed in HEK293 cells using acetylthiocholine iodide as substrate preincubated for 120 mins followed by substrate addition by Ellman's method
READOUT KIND: IC50 (µM)
Express it in µM; write the number only.

CCCCCCCNC(=O)Oc1cccc(Cn2cc(COc3ccc4ccc(=O)oc4c3)nn2)c1 1.04
CN(CCCOc1ccc2ccc(=O)oc2c1)Cc1cccc(OC(=O)NCCCCCCc2ccccc2)c1 0.109
CCCCCCCNC(=O)Oc1cccc(CN(C)CCCCCOc2ccc3c(c2)Oc2ncccc2C3)c1 0.00692
O=C(NCCCCCc1ccccc1)Oc1ccc(Cn2cc(COc3ccc4ccc(=O)oc4c3)nn2)cc1 0.255
CCCCCCCNC(=O)Oc1ccc(-n2cc(COc3ccc4ccc(=O)oc4c3)nn2)cc1 158

// fetch IC50 for CCCCCCCNC(=O)Oc1cccc(CN(C)CCCCCOc2ccc3ccc(=O)oc3c2)c1 ; system: Acetylcholinesterase (Homo sapiens)
0.0113

Output reported IC50 of the molecule COc1ccc(-c2cc3cc(OCCCN(C)Cc4cccc(OC(=O)NCCCCCc5ccccc5)c4)ccc3oc2=O)cc1 on Acetylcholinesterase (Homo sapiens).
0.179

Name the recorded IC50 of CN(CCCOc1ccc2c3c(c(=O)oc2c1)CCCC3)Cc1cccc(OC(=O)NCCCCCc2ccccc2)c1 , assay system Acetylcholinesterase (Homo sapiens).
0.0899

Please report the measured IC50 for COc1ccc(-c2cc3ccc(OCCCN(C)Cc4cccc(OC(=O)NCCCCCc5ccccc5)c4)cc3oc2=O)cc1 tested on Acetylcholinesterase (Homo sapiens).
0.312

* * *

Biological target: Fatty-acid amide hydrolase 1 (Rattus norvegicus)
Test: Inhibition of FAAH in rat brain membrane using N-arachidonoyl-[14C]-ethanolamine as substrate incubated for 30 mins by scintillation counting method
Assay type: cell membranes
READOUT KIND: pIC50
Please express pIC50 as -log10 of the molar concentration.

Name the recorded pIC50 of the item COc1ccc(-c2cc3cc(OCCCN(C)Cc4cccc(OC(=O)NCCCCCc5ccccc5)c4)ccc3oc2=O)cc1 in your answer.
5.55

* * *

IC50 overview
Target: Cholinesterase (Homo sapiens, UniProt P06276)
Sequence (P06276 whole entry): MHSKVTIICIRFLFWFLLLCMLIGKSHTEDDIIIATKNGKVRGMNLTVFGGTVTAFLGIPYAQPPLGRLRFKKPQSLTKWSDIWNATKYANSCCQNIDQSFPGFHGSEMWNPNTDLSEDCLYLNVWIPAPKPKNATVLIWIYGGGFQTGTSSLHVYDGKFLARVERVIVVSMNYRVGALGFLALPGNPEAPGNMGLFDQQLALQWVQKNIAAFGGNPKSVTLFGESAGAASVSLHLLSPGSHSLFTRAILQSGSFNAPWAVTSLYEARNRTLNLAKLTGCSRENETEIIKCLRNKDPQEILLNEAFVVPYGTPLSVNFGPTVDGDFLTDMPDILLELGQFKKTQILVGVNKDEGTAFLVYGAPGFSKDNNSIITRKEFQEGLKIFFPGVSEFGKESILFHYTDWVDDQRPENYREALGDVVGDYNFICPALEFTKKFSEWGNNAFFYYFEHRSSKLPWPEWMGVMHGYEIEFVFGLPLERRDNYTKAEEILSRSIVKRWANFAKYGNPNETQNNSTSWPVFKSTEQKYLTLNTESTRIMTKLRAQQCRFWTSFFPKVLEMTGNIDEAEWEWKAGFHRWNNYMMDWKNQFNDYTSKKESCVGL
Experiment: Inhibition of human serum BuChE using butyrylthiocholine iodide as substrate preincubated for 15 mins followed by substrate addition by Ellman's method
Report as a plain number; the unit nM is understood.

Worked set:
O=C(NCCCCCc1ccccc1)Oc1cccc(-n2cc(COc3ccc4ccc(=O)oc4c3)nn2)c1 15.2
CN(CCCOc1ccc2c(c1)oc(=O)c1ccccc12)Cc1cccc(OC(=O)NCCCCCc2ccccc2)c1 1.19

Give the value of IC50 reported for the following: COc1ccc(-c2cc3cc(OCCCN(C)Cc4cccc(OC(=O)NCCCCCc5ccccc5)c4)ccc3oc2=O)cc1
1.15

Fill in reported IC50 for this entry: CN(CCCOc1ccc2cc(-c3ccc(Cl)cc3)c(=O)oc2c1)Cc1cccc(OC(=O)NCCCCCc2ccccc2)c1
3.51

* * *

Molecular target: Acetylcholinesterase (Homo sapiens, UniProt P22303)
Sequence (P22303 whole entry): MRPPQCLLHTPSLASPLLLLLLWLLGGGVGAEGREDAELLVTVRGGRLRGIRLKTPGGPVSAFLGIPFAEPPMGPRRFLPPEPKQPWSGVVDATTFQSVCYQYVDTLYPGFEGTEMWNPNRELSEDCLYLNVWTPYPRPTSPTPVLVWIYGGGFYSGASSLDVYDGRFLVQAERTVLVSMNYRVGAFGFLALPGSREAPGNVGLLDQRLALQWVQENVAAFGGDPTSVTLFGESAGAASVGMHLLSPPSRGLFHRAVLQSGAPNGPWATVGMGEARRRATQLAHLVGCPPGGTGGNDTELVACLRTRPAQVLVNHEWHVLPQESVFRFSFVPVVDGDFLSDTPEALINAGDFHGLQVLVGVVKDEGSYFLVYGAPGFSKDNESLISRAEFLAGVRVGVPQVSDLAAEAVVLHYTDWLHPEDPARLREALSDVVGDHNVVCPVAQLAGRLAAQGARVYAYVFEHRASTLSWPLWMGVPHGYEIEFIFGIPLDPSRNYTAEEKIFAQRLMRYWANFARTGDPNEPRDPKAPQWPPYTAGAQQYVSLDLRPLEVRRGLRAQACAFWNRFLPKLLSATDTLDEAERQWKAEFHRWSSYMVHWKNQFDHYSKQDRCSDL
Experiment: Inhibition of recombinant human AChE expressed in HEK293 cells using acetylthiocholine iodide as substrate preincubated for 60 mins followed by substrate addition by Ellman's method
READOUT KIND: pIC50
Remember the convention: pIC50 equals -log10 of concentration in molar.

State, in one line, measured pIC50 of CCCCCCc1ccc(NC(=O)Oc2cccc(CN(C)CCCOc3ccc4ccc(=O)oc4c3)c2)cc1
5.42

* * *

Target: Cholinesterase (Homo sapiens)
Assay: Inhibition of human serum BuChE using butyrylthiocholine iodide as substrate preincubated for 20 mins followed by substrate addition by Ellman's method
READOUT KIND: log10(IC50) (log10 of the value in nM)
Kindly note that the scale is log10 and the underlying IC50 is in nM.

CCCCCCCNC(=O)Oc1cccc(CN(C)CCCCCOc2ccc3ccc(=O)oc3c2)c1 -0.10
CCCCCCCNC(=O)Oc1cccc(Cn2cc(COc3ccc4ccc(=O)oc4c3)nn2)c1 1.89
CCCCCCCNC(=O)Oc1cccc(CN(C)CCCOc2ccc3c(=O)c4cccnc4oc3c2)c1 -0.16
CCCCCCCNC(=O)Oc1cccc(CN(C)CCCOc2ccc3c4c(c(=O)oc3c2)CCCC4)c1 -0.57
CCCCCCCNC(=O)Oc1ccc(-n2cc(COc3ccc4ccc(=O)oc4c3)nn2)cc1 5.09

Now, please, on to the next compound.
Specify log10(IC50) for CCCCCCCNC(=O)Oc1ccc(Cn2cc(COc3ccc4ccc(=O)oc4c3)nn2)cc1 and stop.
1.20

* * *

Molecular target: Fatty-acid amide hydrolase 1 (Rattus norvegicus, UniProt P97612)
Sequence (P97612 whole entry): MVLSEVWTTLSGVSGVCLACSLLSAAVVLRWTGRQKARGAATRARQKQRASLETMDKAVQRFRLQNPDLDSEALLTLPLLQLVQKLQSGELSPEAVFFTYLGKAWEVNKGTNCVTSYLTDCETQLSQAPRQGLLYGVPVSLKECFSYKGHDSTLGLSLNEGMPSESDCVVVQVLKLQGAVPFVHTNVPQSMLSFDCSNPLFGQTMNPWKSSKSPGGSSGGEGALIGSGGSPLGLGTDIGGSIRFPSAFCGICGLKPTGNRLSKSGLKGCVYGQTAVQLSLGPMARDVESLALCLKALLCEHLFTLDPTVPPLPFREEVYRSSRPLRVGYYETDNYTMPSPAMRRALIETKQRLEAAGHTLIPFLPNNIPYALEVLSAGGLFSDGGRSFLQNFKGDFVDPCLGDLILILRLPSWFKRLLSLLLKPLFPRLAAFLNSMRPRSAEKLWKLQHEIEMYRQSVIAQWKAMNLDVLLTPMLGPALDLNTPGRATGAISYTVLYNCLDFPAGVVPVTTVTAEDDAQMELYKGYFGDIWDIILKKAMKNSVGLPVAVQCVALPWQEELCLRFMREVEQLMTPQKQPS
Experiment: Inhibition of FAAH in rat brain membrane using N-arachidonoyl-[14C]-ethanolamine as substrate preincubated for 20 mins followed by substrate addition measured after 30 mins by scintillation counting method
Assay type: cell membranes
READOUT KIND: pIC50
# reply with the number alone; pIC50 is -log10 of concentration in mol/L

CCCCCCCNC(=O)Oc1ccc(Cn2cc(COc3ccc4ccc(=O)oc4c3)nn2)cc1 7.26
CN(CCCCCOc1ccc2ccc(=O)oc2c1)Cc1cccc(OC(=O)NCCCCCc2ccccc2)c1 6.92

Fill in pIC50 for record CCCCCCCNC(=O)Oc1ccc(-n2cc(COc3ccc4ccc(=O)oc4c3)nn2)cc1
7.67

* * *

Target: UniProt P97612
Assay: Inhibition of FAAH in rat brain membrane at pH 7.4 using N-arachidonoyl-[14C]-ethanolamine as substrate preincubated for 10 mins followed by substrate addition measured after 30 mins by scintillation counting method
Assay type: cell membranes
READOUT KIND: pIC50
On this scale, pIC50 is minus log10 of a concentration expressed in M (mol/L).

Read the entry CN(CCCOc1ccc2ccc(=O)oc2c1)Cc1cccc(OC(=O)NCCCCCc2ccccc2)c1 and write its reported pIC50.
5.39

* * *

Target: Fatty-acid amide hydrolase 1 (Rattus norvegicus, UniProt P97612)
Assay: Inhibition of FAAH in rat brain membrane at pH 9 using N-arachidonoyl-[14C]-ethanolamine as substrate preincubated for 10 mins followed by substrate addition measured after 30 mins by scintillation counting method
Format: cell membranes
READOUT KIND: IC50 (nM)
Lab book: enter the figure in nM, no units written.

Return IC50 (reported value) for this compound: CN(CCCOc1ccc2ccc(=O)oc2c1)Cc1cccc(OC(=O)NCCCCCc2ccccc2)c1
183

* * *

Biological target: Acetylcholinesterase (Homo sapiens, UniProt P22303)
Assay: Inhibition of recombinant human AChE expressed in HEK293 cells using acetylthiocholine iodide as substrate preincubated for 120 mins followed by substrate addition by Ellman's method
Items are presented alongside their recorded IC50.
Output spec: scalar in nM, unitless text.

# annotated cases, reported IC50 shown
CCCCCCCNC(=O)Oc1ccc(Cn2cc(COc3ccc4ccc(=O)oc4c3)nn2)cc1 214
O=C(NCCCCCc1ccccc1)Oc1ccc(-n2cc(COc3ccc4ccc(=O)oc4c3)nn2)cc1 47900
CN(CCCOc1ccc2cc(-c3ccc(Cl)cc3)c(=O)oc2c1)Cc1cccc(OC(=O)NCCCCCc2ccccc2)c1 900

Now look at this entry.
Look up and state reported IC50 for CN(CCCCCOc1ccc2ccc(=O)oc2c1)Cc1cccc(OC(=O)NCCCCCc2ccccc2)c1
88.1

* * *

Biological target: Fatty-acid amide hydrolase 1 (Rattus norvegicus, UniProt P97612)
Assay: Inhibition of FAAH in rat brain membrane using N-arachidonoyl-[14C]-ethanolamine as substrate preincubated for 20 mins followed by substrate addition measured after 30 mins by scintillation counting method
Type: cell membranes
pIC50 values, listed per item
API: returns pIC50 as number; meaning -log10 of concentration in mol/L.

O=C(NCCCCCc1ccccc1)Oc1cccc(-n2cc(COc3ccc4ccc(=O)oc4c3)nn2)c1 7.35
CN(CCCOc1ccc2ccc(=O)oc2c1)Cc1cccc(OC(=O)NCCCCCCc2ccccc2)c1 6.28

Under Fatty-acid amide hydrolase 1 (Rattus norvegicus, UniProt P97612), report pIC50 for CCCCCCCNC(=O)Oc1cccc(-n2cc(COc3ccc4ccc(=O)oc4c3)nn2)c1
7.80

Give pIC50 for this entry on Fatty-acid amide hydrolase 1 (Rattus norvegicus, UniProt P97612): CCCCCCCNC(=O)Oc1cccc(CN(C)CCCOc2ccc3c(=O)c4cccnc4oc3c2)c1
6.69

Please look at CCCCCCCNC(=O)Oc1cccc(CN(C)CCCCCOc2ccc3ccc(=O)oc3c2)c1 and tell me its recorded pIC50 on Fatty-acid amide hydrolase 1 (Rattus norvegicus, UniProt P97612).
6.62

* * *

Recorded IC50 for the following compounds
Target: Acetylcholinesterase (Homo sapiens, UniProt P22303)
Test: Inhibition of recombinant human AChE expressed in HEK293 cells using acetylthiocholine iodide as substrate preincubated for 120 mins followed by substrate addition by Ellman's method
Respond numerically; units are nM and should not be typed.

Look up IC50 of CCCCCCCNC(=O)Oc1cccc(-n2cc(COc3ccc4ccc(=O)oc4c3)nn2)c1 and report it.
702

Using the record for CCCCCCCNC(=O)Oc1cccc(CN(C)CCCOc2ccc3ccc(=O)oc3c2)c1 , state its measured IC50.
37.4

Quote IC50 reported for O=C(NCCCCCc1ccccc1)Oc1cccc(-n2cc(COc3ccc4ccc(=O)oc4c3)nn2)c1 please.
1170
